Measured Target: human cathepsin L (Homo sapiens, UniProt P07711)
Sequence (P07711 114-333): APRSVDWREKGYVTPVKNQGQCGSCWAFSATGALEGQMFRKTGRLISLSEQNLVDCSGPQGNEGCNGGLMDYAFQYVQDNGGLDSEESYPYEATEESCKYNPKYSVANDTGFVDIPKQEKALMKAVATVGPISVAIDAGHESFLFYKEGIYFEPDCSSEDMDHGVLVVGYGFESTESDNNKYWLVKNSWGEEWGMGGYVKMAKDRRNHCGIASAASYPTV
Assay Overview: Cathepsin L Ki
Format: biochemical
Assay Setup: representative values from specific batches of compound/enzyme/assay occasion

{"columns": ["Smiles Data", "Measured Target", "Ki (nM)"],
 "data": [
  ["CC(C)C[C@H](NC(=O)c1ccc(-c2csc(N3CCN(C)CC3)n2)c(F)c1)C(=O)N1C[C@@H](Cl)[C@H]2OCC(=O)[C@H]21", "human cathepsin L (Homo sapiens, UniProt P07711)", 490],
  ["CC(C)C[C@H](NC(=O)c1ccc(-c2csc(N3CCN(C)CC3)n2)cc1)C(=O)N1C[C@@H](Cl)[C@H]2OCC(=O)[C@H]21", "human cathepsin L (Homo sapiens, UniProt P07711)", 890],
  ["CC(C)C[C@H](NC(=O)c1ccc(-c2nc(N3CCN(C)CC3)sc2F)cc1)C(=O)N1C[C@@H](Cl)[C@H]2OCC(=O)[C@H]21", "human cathepsin L (Homo sapiens, UniProt P07711)", 1600],
  ["CN1CCN(c2nc(-c3ccc(C(=O)N[C@H](C(=O)N4C[C@@H](Cl)[C@H]5OCC(=O)[C@H]54)C4CCCCC4)cc3)cs2)CC1", "human cathepsin L (Homo sapiens, UniProt P07711)", 1200],
  ["CN1CCN(c2nc(-c3ccc(C(=O)N[C@@H](CC(C)(C)F)C(=O)N4C[C@@H](Cl)[C@H]5OCC(=O)[C@H]54)cc3)cs2)CC1", "human cathepsin L (Homo sapiens, UniProt P07711)", 2900],
  ["Cc1sc(N2CCN(C)CC2)nc1-c1ccc(C(=O)N[C@@H](CC(C)C)C(=O)N2C[C@@H](Cl)[C@H]3OCC(=O)[C@H]32)cc1", "human cathepsin L (Homo sapiens, UniProt P07711)", 880]
]}
